We begin with a simple list: items and their reported TGI.
tested on: KM12 colon; experiment: NCI tumour cell line growth inhibition, 48 h

COMPOUND | TGI
CC(=O)/C=C/c1ccc(OCc2ccc(C(C)(C)C)cc2)cc1 | > 1000 µM
CNC(=O)NCC1OC(n2cnc3c(NC(=O)Nc4ccccc4)ncnc32)C(O[Si](C)(C)C(C)(C)C)C1CC(=O)N(C)OC (stereo not given) | > 100 µM
C=Cc1nc2nnc(CCCCCCCCc3nnc4nc(C=C)[nH]n34)n2[nH]1 | > 100 µM
CC(=O)NS(=O)(=O)c1ccc(-n2nc(-c3ccc(Cl)cc3)cc2-c2cc(O)ccc2O)cc1 | > 100 µM
CC(C)NCCCC(C)Nc1ccnc2ccc3nn(C)nc3c12 (stereo not given) | > 100 µM
